test: Comparative pharmacokinetic data in mice (plasma and brain); details: male swiss mice, normalized at 1 mg of base/kg, 24 hours sampling
Note to self: values exactly at 500 ng·h/mL are class 1. So AUC plasma at or above 500 ng·h/mL is class 1, below is class 0.

> print(dat)
                                   molecule    label
1  C[C@H]1CCCN(CCCOc2ccc(-c3cc[n+]([O-])cc3)cc2)C1.O.O.O.O=C(O)C(O)C(O)C(=O)O [Example 7]  class 0
2  C[C@H]1CCCN(CCCOc2ccc(-c3cc[n+]([O-])cc3)cc2)C1.O=C(O)C(=O)O [Example 6]  class 1
3  C[C@H]1CCCN(CCCOc2ccc(-c3cc[n+]([O-])cc3)cc2)C1.O=S(=O)(O)O [Example 15]  class 0
4  C[C@H]1CCCN(CCCOc2ccc(-c3cc[n+]([O-])cc3)cc2)C1.Cl.Cl.O.O.O.O [Example 4]  class 1
5  C[C@H]1CCCN(CCCOc2ccc(-c3cc[n+]([O-])cc3)cc2)C1.O=P(O)(O)O [Example 12]  class 0
6  C[C@H]1CCCN(CCCOc2ccc(-c3cc[n+]([O-])cc3)cc2)C1 [Example 5]  class 1
7  C[C@H]1CCCN(CCCOc2ccc(-c3cc[n+]([O-])cc3)cc2)C1.O=C(O)/C=C/C(=O)O [Example 9]  class 0
8  C[C@H]1CCCN(CCCOc2ccc(-c3cc[n+]([O-])cc3)cc2)C1.O=C(O)c1cc2ccccc2c(Cc2c(O)c(C(=O)O)cc3ccccc23)c1O [Example 8]  class 1
